- Assay Details: chemical genetic growth profiling, strain panel (AID 1159580);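 note: tested at 20 µM; growth read once vehicle control cultures reached saturation at 30 °C; 1 = growth at the plate median or of vehicle wells; lower values mean less growth of the strain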
- Measurement Conditions: S. cerevisiae deletion strains, growth OD, locus YJL164C, strain tpk1, active compounds read low
About 2,000 (36%) of roughly 5,500 compounds were called active. Another 18% or so got no clear call; they are omitted. Some of the results follow.
Catalogue of normalized growth values
// return a plain number; no unit text

As a guide, the following entries are already answered.
CC(=O)OC(C)C[N+](C)(C)C (centres undefined)    1.01
OCC(O)C(O)C(O)C(O)C(O)CO (centres undefined)    0.994
CCOC(=O)c1c(C)cc(O)cc1O    0.903
CCC(=O)c1c(O)cc(O)cc1O    0.993
NC(=O)NCCCC(N)C(=O)O (centres undefined)    0.981

# input molecule: CCCCCCCCCCCC1=C(O)C(=O)C=C(O)C1=O ; wanted: its normalized growth 0.83

Then COC(=O)c1c(C)cc(OC)cc1O ? 0.969

Then CC(C)(C)NCC(O)c1cc(O)cc(O)c1 (centres undefined) ? 1

Then NC(N)=NC(=O)c1nc(Cl)c(N)nc1N ? 0.995
